- experimentalDetails: In vivo toxicity of Compound 1 in monkeys
- conditions: monkey, in vivo, single bolus intravenous administration
endpointLabel: MTD

MTD reading for "CC(C)=CCC/C(C)=C/CC/C(C)=C/CN1C(=O)c2cccc(O)c2Nc2c(O)cc(O)cc21" : ~35 mg/kg

====

- experimentalDetails: Pharmacokinetics of Formulation D11 given CIV for 14 days in rats
- Type: in vivo
- conditions: both sexes, Sprague-Dawley, rat, plasma, iv, 25 mg/kg/day, 14-day CIV, 25 mg/kg/day, read-out: Vz
endpointLabel: Vd (L/kg)
Numbers only here, please. The scale is L/kg.

# Vd (compound: "CC(C)=CCC/C(C)=C/CC/C(C)=C/CN1C(=O)c2cccc(O)c2Nc2c(O)cc(O)cc21" ) is 6.8

====

- experimentalDetails: Population pharmacokinetic analysis (NONMEM), monkey
- Type: in vivo
- conditions: cynomolgus, plasma, iv; Monkey (CIV), WT 3.8 Kg; read-out: Vss
endpointLabel: Vd (L)
The response must be a number in L with no trailing unit.

For this molecule ( "CC(C)=CCC/C(C)=C/CC/C(C)=C/CN1C(=O)c2cccc(O)c2Nc2c(O)cc(O)cc21" ), measured Vd is 2.36

====

- experimentalDetails: Pharmacokinetics of Formulation D11 given CIV for 14 days in rats
- Assay type: in vivo
- conditions: both sexes, Sprague-Dawley, rat, plasma, iv, 14-day CIV, 50 mg/kg/day
endpointLabel: clearance (mL/min/kg)
Report as a plain number; the unit mL/min/kg is understood.

Given item "CC(C)=CCC/C(C)=C/CC/C(C)=C/CN1C(=O)c2cccc(O)c2Nc2c(O)cc(O)cc21" , the value recorded as its clearance is 30

====

- experimentalDetails: Population pharmacokinetic analysis (NONMEM), mouse
- Assay type: in vivo
- conditions: CD1, plasma, 30 mg/kg; Mouse (IV), WT 0.022 Kg; read-out: Vss
endpointLabel: Vd (L)
Numbers only here, please. The scale is L.

Lab note: measured Vd of CC(C)=CCC/C(C)=C/CC/C(C)=C/CN1C(=O)c2cccc(O)c2Nc2c(O)cc(O)cc21 [Compound 1] was 0.009

====

- experimentalDetails: Population pharmacokinetic analysis (NONMEM), monkey
- Type: in vivo
- conditions: cynomolgus, plasma, iv; Monkey (CIV), population PK
- From the text: Plasma concentrations of Compound 1 were obtained from mice, rats, and monkeys following intravenous injection or continuous infusion. Compound 1 pharmacokinetic parameters in mice, rats, and monkeys were estimated using population pharmacokinetic analysis, a function of the software program NONMEM™ (version 5). […]
endpointLabel: clearance (mL/min/kg)
Answer in mL/min/kg, number only, no unit symbol.

Input CC(C)=CCC/C(C)=C/CC/C(C)=C/CN1C(=O)c2cccc(O)c2Nc2c(O)cc(O)cc21 [Compound 1] . Output clearance: 7.35

====

- experimentalDetails: Population pharmacokinetic analysis (NONMEM), rat
- Format: in vivo
- conditions: rat, plasma, iv, Rat (IV + CIV), population PK; read-out: t1/2, β (converted)
endpointLabel: half-life (h)
Write it as a number; the unit h goes unstated.

Record summary for "CC(C)=CCC/C(C)=C/CC/C(C)=C/CN1C(=O)c2cccc(O)c2Nc2c(O)cc(O)cc21" : reported half-life = 2.5

====

- experimentalDetails: Pharmacokinetics of Formulation D11 given CIV for 14 days in rats
- Format: in vivo
- conditions: both sexes, Sprague-Dawley, rat, plasma, iv, 14-day CIV, 25 mg/kg/day
endpointLabel: AUC (µg·h/mL)
I only need the number, in µg·h/mL, no unit after it.

Entry "CC(C)=CCC/C(C)=C/CC/C(C)=C/CN1C(=O)c2cccc(O)c2Nc2c(O)cc(O)cc21" — recorded AUC = 116

====

- experimentalDetails: Pharmacokinetics of Formulation D11 given CIV for 14 days in monkeys
- Format: in vivo, Cynomolgus monkeys
- conditions: cynomolgus, cynomolgus monkey, plasma, iv, 15 mg/kg/day, 14-day CIV, 15 mg/kg/day, Mean (SD), read-out: Vz
endpointLabel: Vd (L/kg)
Kindly answer with a numeric value in L/kg, unit omitted.

Per the records, this compound ( "CC(C)=CCC/C(C)=C/CC/C(C)=C/CN1C(=O)c2cccc(O)c2Nc2c(O)cc(O)cc21" ) has Vd equal to 6.8

====

- experimentalDetails: Population pharmacokinetic analysis (NONMEM), rat
- Assay type: in vivo
- conditions: plasma; Rat (IV + CIV), population PK; read-out: Vss
endpointLabel: Vd
Record the result as a number with its unit.

Briefly, Vd measured for "CC(C)=CCC/C(C)=C/CC/C(C)=C/CN1C(=O)c2cccc(O)c2Nc2c(O)cc(O)cc21" : 0.362 L/kg

====

- experimentalDetails: Pharmacokinetics of Formulation D11 given CIV for 14 days in monkeys
- Format: in vivo, Cynomolgus monkeys
- conditions: cynomolgus, cynomolgus monkey, plasma, iv, 14-day CIV, 30 mg/kg/day, Mean (SD)
endpointLabel: clearance (L/h/kg)
Numbers only here, please. The scale is L/h/kg.

So, "CC(C)=CCC/C(C)=C/CC/C(C)=C/CN1C(=O)c2cccc(O)c2Nc2c(O)cc(O)cc21" ? Its clearance was 0.27

====

- experimentalDetails: Pharmacokinetics of Formulation D11 given CIV for 14 days in rats
- Format: in vivo
- conditions: both sexes, Sprague-Dawley, rat, plasma, iv, 50 mg/kg/day, 14-day CIV, 50 mg/kg/day, read-out: Vss
endpointLabel: Vd

Vd reading for "CC(C)=CCC/C(C)=C/CC/C(C)=C/CN1C(=O)c2cccc(O)c2Nc2c(O)cc(O)cc21" : 38.8 L/kg

====

- experimentalDetails: Pharmacokinetics of Formulation D11 given CIV for 14 days in monkeys
- Format: in vivo, Cynomolgus monkeys
- conditions: cynomolgus monkey, plasma, iv, 5 mg/kg/day, 14-day CIV, 5 mg/kg/day, Mean (SD), read-out: Vz
endpointLabel: Vd (L/kg)
Field format: number, assumed L/kg, no unit text.

Please fill in: Vd reported for "CC(C)=CCC/C(C)=C/CC/C(C)=C/CN1C(=O)c2cccc(O)c2Nc2c(O)cc(O)cc21" = 10

====

- experimentalDetails: Population pharmacokinetic analysis (NONMEM), monkey
- Format: in vivo
- conditions: cynomolgus, monkey, plasma, iv, Monkey (CIV), population PK; read-out: t1/2, α (converted)
endpointLabel: half-life (min)
// note: answer is a bare numeric in min

Record "CC(C)=CCC/C(C)=C/CC/C(C)=C/CN1C(=O)c2cccc(O)c2Nc2c(O)cc(O)cc21" , field half-life: 18.5

====

- experimentalDetails: Pharmacokinetics of Formulation D11 given CIV for 14 days in rats
- Assay type: in vivo
- conditions: both sexes, Sprague-Dawley, rat, plasma, iv, 75 mg/kg/day, 14-day CIV, 75 mg/kg/day, read-out: Vz
endpointLabel: Vd (L/kg)
All answers are understood in L/kg, so give the number only.

// field: Vd; key: CC(C)=CCC/C(C)=C/CC/C(C)=C/CN1C(=O)c2cccc(O)c2Nc2c(O)cc(O)cc21 [Compound 1] ; value = 3.1

====

- experimentalDetails: Population pharmacokinetic analysis (NONMEM), monkey
- Type: in vivo
- conditions: cynomolgus, plasma, iv; Monkey (CIV), WT 3.8 Kg
endpointLabel: clearance (mL/min)
// note: answer is a bare numeric in mL/min

So, CC(C)=CCC/C(C)=C/CC/C(C)=C/CN1C(=O)c2cccc(O)c2Nc2c(O)cc(O)cc21 [Compound 1] ? Its clearance was 28

====

- experimentalDetails: Pharmacokinetics of Formulation D11 given CIV for 14 days in monkeys
- Format: in vivo, Cynomolgus monkeys
- conditions: cynomolgus, cynomolgus monkey, plasma, iv, 30 mg/kg/day, 14-day CIV, 30 mg/kg/day, Mean (SD), read-out: Vz
endpointLabel: Vd (L/kg)
Unit L/kg implied. Number only.

Noted for CC(C)=CCC/C(C)=C/CC/C(C)=C/CN1C(=O)c2cccc(O)c2Nc2c(O)cc(O)cc21 [Compound 1] : its Vd reads 3.2

====

- experimentalDetails: Pharmacokinetics of Formulation D11 given CIV for 14 days in rats
- Type: in vivo
- conditions: both sexes, Sprague-Dawley, rat, plasma, iv, 75 mg/kg/day, 14-day CIV, 75 mg/kg/day, read-out: Vss
endpointLabel: Vd (L/kg)
Give a bare numeral; the unit L/kg is implied.

The reported Vd of the molecule "CC(C)=CCC/C(C)=C/CC/C(C)=C/CN1C(=O)c2cccc(O)c2Nc2c(O)cc(O)cc21" was 15.4

====

- experimentalDetails: Pharmacokinetics of Formulation D11 given CIV for 14 days in rats
- Format: in vivo
- conditions: both sexes, Sprague-Dawley, rat, plasma, iv, 14-day CIV, 25 mg/kg/day
endpointLabel: clearance (mL/min/kg)
Write the answer as a number in mL/min/kg, unit excluded.

Form field clearance, entry "CC(C)=CCC/C(C)=C/CC/C(C)=C/CN1C(=O)c2cccc(O)c2Nc2c(O)cc(O)cc21" : 50
